The measurements presented in this section are drawn from paper PMC8519022.

- tested target: Bos taurus trypsin 1 (T1) (Bos taurus)
- Sequence (P00760 24-246): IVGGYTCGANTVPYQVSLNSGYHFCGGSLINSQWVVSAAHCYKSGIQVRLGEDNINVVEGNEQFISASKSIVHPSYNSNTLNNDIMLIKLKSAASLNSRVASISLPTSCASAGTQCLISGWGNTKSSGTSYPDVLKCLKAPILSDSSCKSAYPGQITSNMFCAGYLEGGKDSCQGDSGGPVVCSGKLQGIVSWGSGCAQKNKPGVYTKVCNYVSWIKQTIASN
- test summary: Trypsin inhibition, Ki by Lineweaver-Burk analysis;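 note: trypsin activity followed by spectrophotometric hydrolysis kinetics of the chromogenic substrate BAPNA in Tris buffer, Ki obtained from double-reciprocal Lineweaver–Burk plots at several substrate concentrations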
- condition label: K i [nM] (open)
*1 amine or outer side, *2 acyl side, *3 side chain or, on linkers, in order; H or OH if unused. Where a SMILES comes first, the peptide text is derived from it. Bridges are numbered along the chain shown (N, C = ends). Triazole bridges read from a SMILES are 1,4-linked. [ ]: non-standard residue; d: D form. X1 = Cc1sc(C(=O)[C@@H]2CCCN2[*:2])cc1C1=C(c2cc(C(=O)[*:1])sc2C)CCC1; Orn(N3) = [N-]=[N+]=NCCC[C@H](N)C(=O)O; Aha = [N-]=[N+]=NCC[C@H](N)C(=O)O; Pra = C#CC[C@H](N)C(=O)O
endpoint: Ki
Answer with the number, then the unit.

Here is how some compounds turned out for Ki.
Dear colleague, I am looking for the recorded Ki of the following compound: CC[C@H](C)[C@@H]1NC(=O)[C@@H]2CCCN2C(=O)[C@@H]2CCCN2C(=O)[C@H]([C@@H](C)CC)NC(=O)[C@H](CO)NC(=O)[C@H](CCCCN)NC(=O)[C@H]([C@@H](C)O)NC(=O)[C@@H]2Cc3cn(nn3)CC[C@H](NC1=O)C(=O)N[C@@H](CCCNC(=N)N)C(=O)N[C@@H](CC(C)C)C(=O)N1CCC[C@H]1C(=O)c1cc(c(C)s1)C1=C(CCC1)c1cc(sc1C)C(=O)N[C@@H](C(C)C)C(=O)N[C@@H](Cc1ccccc1)C(=O)N2 [Peptide S11i] (VF[Pra]TKSIPPI[Aha]RL; triazole 3-11; linker N-C via X1) 1720 nM

Dear colleague, I am looking for the recorded Ki of the following compound: CC[C@H](C)[C@@H]1NC(=O)[C@@H]2CCCN2C(=O)[C@@H]2CCCN2C(=O)[C@H]([C@@H](C)CC)NC(=O)[C@H](CO)NC(=O)[C@H](CCCCN)NC(=O)[C@H]([C@@H](C)O)NC(=O)[C@H](C)NC(=O)c2cc(c(C)s2)C2=C(CCC2)c2cc(sc2C)C(=O)[C@@H]2CCCN2C(=O)[C@H](C)NC1=O [Peptide S3] (ATKSIPPIA; linker N-C via X1) 101 nM

Dear colleague, I am looking for the recorded Ki of the following compound: CC[C@H](C)[C@@H]1NC(=O)[C@@H]2CCCN2C(=O)[C@@H]2CCCN2C(=O)[C@H]([C@@H](C)CC)NC(=O)[C@H](CO)NC(=O)[C@H](CCCCN)NC(=O)[C@H]([C@@H](C)O)NC(=O)[C@@H]2CSSC[C@H](NC1=O)C(=O)N[C@@H](Cc1ccccc1)C(=O)N1CCC[C@H]1C(=O)c1cc(c(C)s1)C1=C(CCC1)c1cc(sc1C)C(=O)N[C@@H](C(C)C)C(=O)N[C@@H](CCCNC(=N)N)C(=O)N2 [Peptide S8n] (VRCTKSIPPICF; disulfide 3-11; linker N-C via X1) 5.2 nM

Dear colleague, I am looking for the recorded Ki of the following compound: CC[C@H](C)[C@@H]1NC(=O)[C@@H]2CCCN2C(=O)[C@@H]2CCCN2C(=O)[C@H]([C@@H](C)CC)NC(=O)[C@H](CO)NC(=O)[C@H](CCCCN)NC(=O)[C@H]([C@@H](C)O)NC(=O)[C@@H]2Cc3cn(nn3)CC[C@H](NC1=O)C(=O)N[C@@H](Cc1ccccc1)C(=O)N1CCC[C@H]1C(=O)c1cc(c(C)s1)C1=C(CCC1)c1cc(sc1C)C(=O)N[C@@H](CCCNC(=N)N)C(=O)N2 [Peptide S6n] (R[Pra]TKSIPPI[Aha]F; triazole 2-10; linker N-C via X1) 135 nM

Dear colleague, I am looking for the recorded Ki of the following compound: CC[C@H](C)[C@@H]1NC(=O)[C@@H]2CCCN2C(=O)[C@@H]2CCCN2C(=O)[C@H]([C@@H](C)CC)NC(=O)[C@H](CO)NC(=O)[C@H](CCCCN)NC(=O)[C@H]([C@@H](C)O)NC(=O)[C@@H]2Cc3cn(nn3)CCC[C@H](NC1=O)C(=O)N[C@@H](Cc1ccccc1)C(=O)N1CCC[C@H]1C(=O)c1cc(c(C)s1)C1=C(CCC1)c1cc(sc1C)C(=O)N[C@@H](CCCNC(=N)N)C(=O)N2 [Peptide S7n] (R[Pra]TKSIPPI[Orn(N3)]F; triazole 2-10; linker N-C via X1) 63.4 nM

Moving on to the next compound.
Dear colleague, I am looking for the recorded Ki of the following compound: CC[C@H](C)[C@@H]1NC(=O)[C@@H]2CCCN2C(=O)[C@@H]2CCCN2C(=O)[C@H]([C@@H](C)CC)NC(=O)[C@H](CO)NC(=O)[C@H](CCCCN)NC(=O)[C@H]([C@@H](C)O)NC(=O)[C@@H]2Cc3cn(nn3)CC[C@H](NC1=O)C(=O)N[C@@H](CCCNC(=N)N)C(=O)N1CCC[C@H]1C(=O)c1cc(c(C)s1)C1=C(CCC1)c1cc(sc1C)C(=O)N[C@@H](Cc1ccccc1)C(=O)N2 [Peptide S6i] (F[Pra]TKSIPPI[Aha]R; triazole 2-10; linker N-C via X1) 441 nM
